test system: barley, winter (winter barley, Hordeum vulgare); test: Test D controlled growth environment herbicide test, pre- and postemergence; format: in vivo; details: Postemergence, 250 g ai/ha; scale 0 to 100 (0 no effect, 100 complete control)
REPORTED_ENDPOINT: Plant response rating, Barley, Winter
API doc: respond with a numeric literal and nothing else, no unit.

Sample records with Plant response rating, Barley, Winter:
SAMPLE_SMILES | REPORTED_ENDPOINT | REPORTED_VALUE
CC(=O)Oc1c(C)nn(C)c(=O)c1-c1ccc(F)c2ccccc12 | Plant response rating, Barley, Winter | 35
Cc1ccc2ccc(C)c(-c3c(O)c(C)nn(C)c3=O)c2c1 | Plant response rating, Barley, Winter | 50
COc1nn(C)c(=O)c(-c2c(C)ccc3ccccc23)c1O | Plant response rating, Barley, Winter | 30
CC(=O)Oc1c(C)nn(C)c(=O)c1-c1c(C)cc(C)c2ccccc12 | Plant response rating, Barley, Winter | 25
CC(=O)Oc1c(Br)nn(C)c(=O)c1-c1c(C)ccc2ccccc12 | Plant response rating, Barley, Winter | 35
COc1nn(C)c(=O)c(-c2c(C)ccc3ccccc23)c1OC(=O)OC(C)C | Plant response rating, Barley, Winter | 10

Record CC(=O)Oc1c(C)nn(C)c(=O)c1-c1c(C)sc2ccc(C)cc12 . Reported Plant response rating, Barley, Winter: 10

Plant response rating, Barley, Winter reading for CCOC(=O)Oc1c(C)nn(C)c(=O)c1-c1c(C)ccc2ccccc12 : 35

Source of measurements: patent US10597388B2
